# System under test: sGC α1/β1 heterodimer (Homo sapiens, UniProt Q02108+Q02153)
# Construct: expressed in transfected cells; host or cells: CHO-K1 (clone #7, CHO-K1/sGC)
# Sequence (Q02108 whole entry): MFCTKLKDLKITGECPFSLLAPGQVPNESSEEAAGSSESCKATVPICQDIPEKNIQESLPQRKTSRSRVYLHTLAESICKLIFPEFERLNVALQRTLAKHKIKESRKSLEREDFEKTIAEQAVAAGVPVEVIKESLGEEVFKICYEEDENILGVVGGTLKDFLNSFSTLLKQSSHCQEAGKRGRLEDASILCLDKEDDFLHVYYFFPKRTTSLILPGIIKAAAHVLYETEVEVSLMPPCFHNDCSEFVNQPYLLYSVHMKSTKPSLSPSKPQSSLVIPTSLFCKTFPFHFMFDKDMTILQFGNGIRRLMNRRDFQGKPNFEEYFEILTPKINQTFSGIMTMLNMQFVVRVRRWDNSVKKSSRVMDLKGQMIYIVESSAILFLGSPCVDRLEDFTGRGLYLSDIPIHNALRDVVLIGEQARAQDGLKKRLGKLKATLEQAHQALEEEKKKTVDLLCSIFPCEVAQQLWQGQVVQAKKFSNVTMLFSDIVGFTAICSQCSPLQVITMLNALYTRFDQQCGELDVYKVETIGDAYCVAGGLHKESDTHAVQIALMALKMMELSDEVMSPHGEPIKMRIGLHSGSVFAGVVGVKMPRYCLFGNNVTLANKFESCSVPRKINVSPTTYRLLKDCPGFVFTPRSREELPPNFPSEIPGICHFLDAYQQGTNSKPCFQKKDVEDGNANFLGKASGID
# Sequence (Q02153 whole entry): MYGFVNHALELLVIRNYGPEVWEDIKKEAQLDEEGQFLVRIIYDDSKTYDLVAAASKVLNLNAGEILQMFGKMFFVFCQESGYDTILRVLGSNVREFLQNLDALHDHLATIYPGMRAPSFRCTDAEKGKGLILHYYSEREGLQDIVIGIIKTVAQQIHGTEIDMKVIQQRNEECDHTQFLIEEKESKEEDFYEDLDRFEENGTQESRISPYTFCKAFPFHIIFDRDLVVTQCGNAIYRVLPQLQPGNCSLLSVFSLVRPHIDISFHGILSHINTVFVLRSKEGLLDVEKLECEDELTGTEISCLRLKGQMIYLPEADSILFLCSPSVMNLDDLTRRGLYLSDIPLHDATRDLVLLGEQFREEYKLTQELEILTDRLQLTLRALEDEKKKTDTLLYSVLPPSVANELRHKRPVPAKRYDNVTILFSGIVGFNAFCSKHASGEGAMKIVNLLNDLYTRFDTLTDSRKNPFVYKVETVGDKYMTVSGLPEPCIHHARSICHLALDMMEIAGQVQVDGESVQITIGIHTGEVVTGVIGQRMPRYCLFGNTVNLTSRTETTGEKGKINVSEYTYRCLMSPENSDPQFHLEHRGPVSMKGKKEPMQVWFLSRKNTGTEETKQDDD
# Method: Cell-Based sGC Functional Assay (CASA Assay), cGMP by HTRF in CHO-K1/sGC cells
# Condition: cGMP production, 1 hr at 37° C., 4P fit, presence or absence of 1 μM DETA-NO not given, read-out: IP (nM) (inflection point)
Reported EC50 values for a set of compounds
Observation type: EC50

> print(dat)
                                   compound                         system.under.test  observation.type  reported.measurement
1  CC1(c2ccc(F)cn2)C(=O)Nc2nc(-c3cn4ccnc4c(CCC(F)(F)C(F)(F)F)n3)nc(C3CC3)c21 (stereo not shown) [Example 71B]  sGC α1/β1 heterodimer (Homo sapiens, UniProt Q02108+Q02153)              EC50                 23 nM
2  CC1(c2ccc(Cl)cn2)C(=O)Nc2nc(-c3cn4ccnc4c(Cc4ccc(F)cc4)n3)nc(O)c21 (stereo not shown) [Example 16A]  sGC α1/β1 heterodimer (Homo sapiens, UniProt Q02108+Q02153)              EC50                 45 nM
3  CCc1nc(-c2cn3ccnc3c(CCC(F)(F)C(F)(F)F)n2)nc2c1C(C)(c1ccc(F)cc1)C(=O)N2 (stereo not shown) [Example 76A]  sGC α1/β1 heterodimer (Homo sapiens, UniProt Q02108+Q02153)              EC50                 95 nM
4  CC1(c2ccc(F)cc2)C(=O)Nc2nc(-c3cn4ccnc4c(CCC(F)(F)C(F)(F)F)n3)ncc21 (stereo not shown)  sGC α1/β1 heterodimer (Homo sapiens, UniProt Q02108+Q02153)              EC50                228 nM

These data points were gathered from patent US10213429B2.
